- Test system: Wolbachia pipientis
- test_name: Anti-Wolbachia Cell-Based Screen
- Assay type: functional
- Parameters: scale not given: in the data most compounds retested in dose-response had high values
- run_conditions: 5 µM
Hit rate of the full screen: of about 48,000 compounds, about 13,000 (27%) showed an effect of 50% or more. The list shows a part of the results.
experimental_endpoint: Percent Effect (%)
// units = %; emit number, no label

These recorded examples may help you get a feel for the data.
molecule: COc1cccc(-c2nccc(C3CCCN3C)n2)c1 (configuration not stated)
system_name: Wolbachia pipientis
val: 102
//
molecule: COc1cccc(-c2cnc3n2CCC32CCN(C(C)=O)CC2)c1
system_name: Wolbachia pipientis
val: 0.6434
//
molecule: Cc1nc2c(c(N3CCCC(OCc4ccccn4)C3)n1)CCNCC2 (configuration not stated)
system_name: Wolbachia pipientis
val: 98.85
//
molecule: CC(=O)N1[C@H](Cn2cncn2)C[C@@H]2CN(Cc3ccccn3)CC[C@@H]21.O=C(O)C(F)(F)F.O=C(O)C(F)(F)F
system_name: Wolbachia pipientis
val: 10.04
//
molecule: CCc1ccc(-c2ncc3c(n2)N(C)CCN(CCN(C)C)C3=O)cc1
system_name: Wolbachia pipientis
val: 95.82

Value sought: Percent Effect, system Wolbachia pipientis, item CNC(=O)[C@@]12CCC3(CCN(S(=O)(=O)C4CC4)CC3)[C@@H]1CN(C(C)=O)C2 . Result: 108

Form field Percent Effect for item COc1ccc(Cc2cccc(C3CCN(C)CC3)n2)cc1 on Wolbachia pipientis: -4.713

Wolbachia pipientis assay, molecule CCS(=O)(=O)N1CCC2(CC1)CC[C@@]1(C(=O)NC)CN(C(C)=O)C[C@@H]21 , recorded Percent Effect = 0.6663

* * *

- Tested on: Wolbachia pipientis
- test_name: Anti-Wolbachia Cell-Based Screen
- Assay type: functional
- Set-up: scale not given: in the data most compounds retested in dose-response had high values
- run_conditions: 5 µM
In all, about 48,000 compounds went through this assay and about 13,000 (27%) showed an effect of 50% or more. The list shows a part of the results.
experimental_endpoint: Percent Effect

molecule: CN1Cc2ccccc2CC2(CCN(Cc3nccn3C)CC2)C1=O
system_name: Wolbachia pipientis
Percent Effect: 94.48%
//
molecule: Cc1cnn(CC(=O)NC2CCCc3cc(OC(F)F)ccc32)c1 (stereo unspecified)
system_name: Wolbachia pipientis
Percent Effect: -5.352%
//
molecule: Cc1cc(F)ccc1C(=O)N1CCN(C)C2(CCC(=O)N(C)CC2)C1 (stereo unspecified)
system_name: Wolbachia pipientis
Percent Effect: 91.8%

Looking up Cn1ccnc1CN1CCCN(C(=O)c2ccc3c(c2)OCO3)CC1 , I see its Percent Effect listed as 100.5%

Percent Effect measured on O=C1[C@H]2CC[C@H](CN(Cc3ccccc3OC(F)F)C2)N1CC1CC1 = -16.02%

Percent Effect reading for c1ccc(CCN2CCN(c3ccc4nncn4n3)CC2)nc1 : -2.088%

# Percent Effect (molecule: CN(Cc1ccc(Cl)c(F)c1)C(=O)c1ccncc1F ) is 5.158%

* * *

- Test system: Wolbachia pipientis
- test_name: Anti-Wolbachia Cell-Based Screen
- Format: functional
- Set-up: scale not given: in the data most compounds retested in dose-response had high values
- run_conditions: 5 µM
The campaign covered roughly 48,000 compounds. About 13,000 (27%) showed an effect of 50% or more. This is one part of the list.
experimental_endpoint: Percent Effect

molecule: Cc1cc(C(=O)NCCn2nc3ccccn3c2=O)[nH]n1
system_name: Wolbachia pipientis
Percent Effect: -11.84%

Tested system Wolbachia pipientis; Percent Effect recorded for COCCN1C(=O)CC[C@@H]2[C@H]1CCN2C(=O)C1CCOCC1 was 5.34%

The recorded Percent Effect with Wolbachia pipientis for Cc1ccc(CSCCn2nc3ccccn3c2=O)cc1 was -0.2652%

* * *

- Tested on: Wolbachia pipientis
- test_name: Anti-Wolbachia Cell-Based Screen
- Format: functional
- Set-up: scale not given: in the data most compounds retested in dose-response had high values
- run_conditions: 5 µM
About 13,000 (27%) of roughly 48,000 compounds showed an effect of 50% or more. The list shows a part of the results.
Catalogue of Percent Effect values
Returns: string containing the number followed by the unit.

molecule: Cc1ncc(CC(=O)N2CCCC(COc3ccccc3F)C2)c(=O)[nH]1 (centres undefined)
system_name: Wolbachia pipientis
Percent Effect: 16.93%

// Percent Effect lookup, molecule = CC(NCc1cnc(C2CCC2)s1)c1cccc(-n2cccn2)c1 (centres undefined) , result: -14.57%

Data point: Cc1cc(Nc2cnccn2)cc(C2CCCNC2)n1 (centres undefined) ; Percent Effect = 90.08%

The reported value for COCC(=O)N1CCC(C(=O)Nc2ccc(S(N)(=O)=O)cc2)CC1 in terms of Percent Effect is -0.7847%

// Percent Effect value for CCOCc1nc(-c2cccc(OC)c2OC)n(C2CCN(C)CC2)n1 : 115.7%

What the record says about Cc1cc(Nc2cnccn2)cc(C2CCCN2)n1 (centres undefined) : Percent Effect is 103.5%

// field: Percent Effect; key: CN1CCC(Cc2nc(-c3cnccn3)n(C3CCS(=O)(=O)C3)n2)CC1 (centres undefined) ; value = -23.71%

# Percent Effect of Cc1ccc(S(=O)(=O)N(C)CC(C)O)c(F)c1 (centres undefined) = 4.809%

Note to self: Percent Effect recorded for CCCS(=O)(=O)N1C[C@@H]2CN(Cc3ccoc3)CCO[C@@H]2C1.O=C(O)C(F)(F)F was 45.1%

For record COC(=O)c1ccc(NC(=O)[C@@H]2CCCN2C(=O)c2ccco2)s1 the listed Percent Effect is -1.409%

Short answer for Cc1cc(Nc2ccc(F)cn2)cc(C2CCCN2)n1 (centres undefined) : Percent Effect was 111.9%

Lab note: measured Percent Effect of CC(C)CN1CCC(NC(=O)NCCC(=O)NCc2ccccc2)CC1 was -0.3399%

Reported Percent Effect of Cc1cc(C)nc(NC2CCOC3(CCCC3)C2)n1 (centres undefined) : -13.03%

The recorded Percent Effect for CN1C(=O)CC(C(=O)O)C12CCN(Cc1ccc(F)cc1Cl)CC2 (centres undefined) is 0.7528%

Recorded Percent Effect (molecule CCOCCC(=O)Nc1cc(C(N)=O)ccc1N1CCCC(C)C1 (centres undefined) ): -3.919%

# Percent Effect of CCOCCN(CCOCC)c1nc(C)nc2sccc12 = -8.835%

So, Cl.Cl.Fc1cccc(-c2c[nH]c(C3CCCN3)n2)c1 (centres undefined) ? Its Percent Effect was -26.74%

Percent Effect measured on CCN(CCn1cccn1)Cc1nc(-c2cc(F)ccc2F)oc1C = -20.47%

The recorded Percent Effect for Cc1ccc(F)cc1S(=O)(=O)N(C)CC(N)=O is 2.56%

* * *

- Test system: Wolbachia pipientis
- test_name: Anti-Wolbachia Cell-Based Screen
- Format: functional
- Design: scale not given: in the data most compounds retested in dose-response had high values
- run_conditions: 5 µM
Screen size: about 48,000 compounds; about 13,000 (27%) showed an effect of 50% or more. This is one part of the list.
experimental_endpoint: Percent Effect (%)
Quick reminder: number only, in %, skip the unit.

molecule: CC(C)N1CCCC2(CCN(C(=O)CCCn3ccnc3)C2)C1=O (stereo not drawn)
Percent Effect / %: -2.08
//
molecule: Cc1cc2n(n1)CC(CNC1CCN(CCc3ccccc3)CC1)CN2 (stereo not drawn)
Percent Effect / %: 3.275
//
molecule: Cc1cccc(Nc2cc(C3CCCN(CC(N)=O)C3)ccn2)n1.O=CO.O=CO (stereo not drawn)
Percent Effect / %: 109.2
//
molecule: CCN1CCCC(c2c(-c3ccccc3)ncn2CC(N)=O)C1 (stereo not drawn)
Percent Effect / %: 0.7504

// CC(=O)c1c(C)cc(C)c(Cn2ccnc2S(C)(=O)=O)c1C : Percent Effect value = -6.43

Entry O=C(CSc1ccncc1)N1C[C@H]2CC[C@@H]1CN(Cc1cccnc1)C2 ; Percent Effect = 5.846

Lookup result for CCC(=O)N1CCCC1c1n[nH]cc1-c1ccccc1F (stereo not drawn) ; measured Percent Effect: 184.8

molecule Cc1cc(-c2ccccc2C(=O)O)nc(C2CCCN2S(C)(=O)=O)n1 (stereo not drawn) , Percent Effect observed: 105.2

Please fill in: Percent Effect reported for O=C(COCC1CC1)N1CCCC1c1nc(-c2ccccc2F)c[nH]1 (stereo not drawn) = 4.201

For O=S(=O)(c1c(Cl)nc2sccn12)N1CCC2(CCNCC2)C1 the molecule record lists Percent Effect as -2.285

For reference, reported Percent Effect for CC(C)Oc1cc(N2CCN(Cc3ccsc3)C(CCO)C2)nc(N)n1 (stereo not drawn) stands at -3.773

Percent Effect reported for this molecule CS(=O)(=O)N1CCCCCC1c1cc(-c2ccc(F)cc2)no1 (stereo not drawn) : 132.6

Value of Percent Effect reported for the molecule CNC(=O)NC(=O)CN1CCCN(CC(F)(F)F)CC1 is 5.4

get_value(item= COC(=O)NCC(=O)N1CCCC1c1nc(-c2ccccc2F)c[nH]1 (stereo not drawn) , readout=Percent Effect) returns 0.1259

Percent Effect reported for this molecule Cc1ccc(O)c(CN(Cc2ccccc2)Cc2nccs2)n1 : 11.33
